# TARGET OR TEST SYSTEM: human integrin αVβ6 (Homo sapiens, UniProt P06756+P18564)
# Sequence (P06756 31-992 limits assumed): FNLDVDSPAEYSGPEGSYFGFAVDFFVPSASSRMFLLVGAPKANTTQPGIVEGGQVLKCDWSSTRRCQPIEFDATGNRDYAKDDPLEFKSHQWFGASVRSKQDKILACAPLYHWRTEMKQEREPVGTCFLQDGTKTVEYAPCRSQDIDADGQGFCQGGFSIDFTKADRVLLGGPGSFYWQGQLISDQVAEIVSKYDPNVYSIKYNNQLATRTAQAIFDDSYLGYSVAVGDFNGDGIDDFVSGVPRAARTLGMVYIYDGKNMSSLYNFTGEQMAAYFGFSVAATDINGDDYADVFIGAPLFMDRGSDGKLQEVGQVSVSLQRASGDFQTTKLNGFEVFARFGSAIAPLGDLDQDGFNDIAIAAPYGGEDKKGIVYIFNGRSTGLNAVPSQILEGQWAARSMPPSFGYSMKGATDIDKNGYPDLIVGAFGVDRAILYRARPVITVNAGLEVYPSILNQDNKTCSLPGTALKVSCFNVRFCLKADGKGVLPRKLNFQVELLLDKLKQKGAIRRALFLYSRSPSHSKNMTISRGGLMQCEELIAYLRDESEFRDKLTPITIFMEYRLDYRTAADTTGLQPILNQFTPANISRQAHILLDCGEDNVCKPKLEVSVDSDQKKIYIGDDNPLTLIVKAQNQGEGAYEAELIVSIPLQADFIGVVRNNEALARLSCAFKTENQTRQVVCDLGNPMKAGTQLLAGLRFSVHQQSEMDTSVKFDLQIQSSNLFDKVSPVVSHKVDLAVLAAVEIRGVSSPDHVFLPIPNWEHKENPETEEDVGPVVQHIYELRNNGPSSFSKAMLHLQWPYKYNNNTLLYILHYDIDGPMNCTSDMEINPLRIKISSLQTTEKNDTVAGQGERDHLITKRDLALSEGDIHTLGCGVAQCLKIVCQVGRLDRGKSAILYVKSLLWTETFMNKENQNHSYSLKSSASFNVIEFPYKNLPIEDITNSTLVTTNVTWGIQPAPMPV
# Sequence (P18564 22-707 limits assumed): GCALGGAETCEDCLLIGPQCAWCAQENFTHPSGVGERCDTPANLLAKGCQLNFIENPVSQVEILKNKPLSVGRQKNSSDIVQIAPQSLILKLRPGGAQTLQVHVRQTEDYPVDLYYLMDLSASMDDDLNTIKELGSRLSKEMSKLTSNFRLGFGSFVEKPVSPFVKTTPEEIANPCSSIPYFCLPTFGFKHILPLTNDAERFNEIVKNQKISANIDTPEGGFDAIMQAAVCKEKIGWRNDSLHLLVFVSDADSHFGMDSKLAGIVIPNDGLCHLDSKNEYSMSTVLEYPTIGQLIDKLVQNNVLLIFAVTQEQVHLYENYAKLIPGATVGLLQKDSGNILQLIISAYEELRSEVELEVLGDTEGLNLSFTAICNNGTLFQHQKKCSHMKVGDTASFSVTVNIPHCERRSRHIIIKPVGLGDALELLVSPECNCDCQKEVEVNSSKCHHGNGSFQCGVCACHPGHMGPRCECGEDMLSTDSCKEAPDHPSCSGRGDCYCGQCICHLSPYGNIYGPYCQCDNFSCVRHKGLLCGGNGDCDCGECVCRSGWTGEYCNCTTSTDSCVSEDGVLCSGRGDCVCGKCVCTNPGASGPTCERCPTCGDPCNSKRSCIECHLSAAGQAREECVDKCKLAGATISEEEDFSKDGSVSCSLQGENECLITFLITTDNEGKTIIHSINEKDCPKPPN
# RUN DESCRIPTION: AlphaScreen proximity-based integrin binding assay with TGF-b1 LAP
# CONDITION DETAILS: values given as ranges
pIC50: −log10 of the molar value.
PROPERTY: pIC50

Recorded results for 3 compounds are shown here.
CC(C)(C(=O)N[C@@H](CCOCCCCc1ccc2c(n1)NCCC2)C(=O)O)c1ccccc1Cl	≤ 6.30
O=C(O)[C@H](CCOCCCCc1ccc2c(n1)NCCC2)NC(=O)C1(c2[nH]ncc2Cl)CC1	≤ 6.30
COc1cccnc1C1(C(=O)N[C@@H](CCOCCCCc2ccc3c(n2)NCCC3)C(=O)O)CC1	≤ 6.30

# input Return reported pIC50; argument: "O=C(O)[C@H](CCOCCCCc1ccc2c(n1)NCCC2)NC(=O)C1(c2ncccc2Cl)CC1"
# output ≤ 6.30

# input Return reported pIC50; argument: "CS(=O)(=O)c1ccccc1C1(C(=O)N[C@@H](CCOCCCCc2ccc3c(n2)NCCC3)C(=O)O)CC1"
# output ≤ 6.30

# input Return reported pIC50; argument: "COc1cncc(Cl)c1C1(C(=O)N[C@@H](CCOCCCCc2ccc3c(n2)NCCC3)C(=O)O)CC1"
# output ≤ 6.30

# input Return reported pIC50; argument: "Cc1ncnc(C)c1C1(C(=O)N[C@@H](CCOCCCCc2ccc3c(n2)NCCC3)C(=O)O)CC1"
# output ≤ 6.30

# input Return reported pIC50; argument: "O=C(O)[C@H](CCOCCCCc1ccc2c(n1)NCCC2)NC(=O)C1(n2cncc2C(F)F)CC1"
# output ≤ 6.30

# input Return reported pIC50; argument: "Cc1ncncc1C1(C(=O)N[C@@H](CCOCCCCc2ccc3c(n2)NCCC3)C(=O)O)CC1"
# output ≤ 6.30

# input Return reported pIC50; argument: "O=C(O)[C@H](CCOCCCCc1ccc2c(n1)NCCC2)NC(=O)C1(c2c(Cl)nc[nH]c2=O)CC1"
# output ≤ 6.30

# input Return reported pIC50; argument: "O=C(O)[C@H](CCOCCCCc1ccc2c(n1)NCCC2)NC(=O)C1(c2ncccn2)CC1"
# output ≤ 6.30

# input Return reported pIC50; argument: "O=C(O)[C@H](CCOCCCCc1ccc2c(n1)NCCC2)NC(=O)C1(n2c(Br)cccc2=O)CC1"
# output < 6.30

# input Return reported pIC50; argument: "COCc1cccnc1C1(C(=O)N[C@@H](CCOCCCCc2ccc3c(n2)NCCC3)C(=O)O)CC1"
# output ≤ 6.30

# input Return reported pIC50; argument: Cc1ncnc(Cl)c1C1(C(=O)NC(CCOCCCCc2ccc3c(n2)NCCC3)C(=O)O)CC1 (stereo not drawn)
# output < 6.30

# input Return reported pIC50; argument: "O=C(O)[C@H](CCOCCCCc1ccc2c(n1)NCCC2)NC(=O)C1(n2c(=O)ccc3ccccc32)CC1"
# output < 6.30

====

# TARGET OR TEST SYSTEM: human integrin αVβ1 (Homo sapiens, UniProt P05556+P06756)
# Sequence (P06756 31-992 limits assumed): as the sequence (P06756 31-992 limits assumed) above
# Sequence (P05556 21-728 limits assumed): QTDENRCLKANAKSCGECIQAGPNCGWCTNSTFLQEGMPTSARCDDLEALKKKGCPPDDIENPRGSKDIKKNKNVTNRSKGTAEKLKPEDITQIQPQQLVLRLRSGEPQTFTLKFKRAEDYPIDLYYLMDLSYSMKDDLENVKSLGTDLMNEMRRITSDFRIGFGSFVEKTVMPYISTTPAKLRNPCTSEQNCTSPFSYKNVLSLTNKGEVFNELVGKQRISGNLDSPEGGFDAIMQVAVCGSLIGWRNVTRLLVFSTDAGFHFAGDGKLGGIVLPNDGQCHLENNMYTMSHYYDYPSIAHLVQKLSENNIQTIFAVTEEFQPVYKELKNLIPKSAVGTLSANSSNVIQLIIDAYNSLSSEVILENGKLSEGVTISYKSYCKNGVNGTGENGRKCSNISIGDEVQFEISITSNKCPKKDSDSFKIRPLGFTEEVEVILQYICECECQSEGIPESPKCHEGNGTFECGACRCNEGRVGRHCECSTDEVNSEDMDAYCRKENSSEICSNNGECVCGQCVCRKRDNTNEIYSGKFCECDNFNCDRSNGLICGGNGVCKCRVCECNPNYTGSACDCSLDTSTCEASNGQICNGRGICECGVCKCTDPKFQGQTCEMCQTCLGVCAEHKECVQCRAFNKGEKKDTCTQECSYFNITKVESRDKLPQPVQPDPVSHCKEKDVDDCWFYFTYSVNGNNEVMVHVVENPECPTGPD
# RUN DESCRIPTION: AlphaScreen proximity-based integrin binding assay with TGF-b1 LAP
# CONDITION DETAILS: values given as ranges
PROPERTY: IC50

# input Short answer please: IC50, human integrin αVβ1 (Homo sapiens, UniProt P05556+P06756), entry Cc1cccnc1C1(C(=O)N[C@@H](CCOCCCCc2ccc3c(n2)NCCC3)C(=O)O)CC1 [Compound 29]
# output 50 to 150 nM

# input Short answer please: IC50, human integrin αVβ1 (Homo sapiens, UniProt P05556+P06756), entry N#Cc1cccc(F)c1C1(C(=O)N[C@@H](CCOCCCCc2ccc3c(n2)NCCC3)C(=O)O)CC1 [Compound 37]
# output < 50 nM

# input Short answer please: IC50, human integrin αVβ1 (Homo sapiens, UniProt P05556+P06756), entry COc1cccc(C2(C(=O)N[C@@H](CCOCCCCc3ccc4c(n3)NCCC4)C(=O)O)CCOCC2)c1 [Compound 87]
# output < 50 nM

# input Short answer please: IC50, human integrin αVβ1 (Homo sapiens, UniProt P05556+P06756), entry COc1cccc(C#N)c1C1(C(=O)N[C@@H](CCOCCCCc2ccc3c(n2)NCCC3)C(=O)O)CC1 [Compound 56]
# output 50 to 150 nM

# input Short answer please: IC50, human integrin αVβ1 (Homo sapiens, UniProt P05556+P06756), entry O=C(N[C@@H](CCOCCCCc1ccc2c(n1)NCCC2)C(=O)O)c1cnn(-c2ccccc2)c1 [Compound 98]
# output 50 to 150 nM

====

Consider the following compounds and their measured pIC50 readings.
# TARGET OR TEST SYSTEM: human integrin αVβ8 (Homo sapiens, UniProt P06756+P26012)
# Sequence (P06756 31-992 limits assumed): as the sequence (P06756 31-992 limits assumed) above
# Sequence (P26012 43-684 limits assumed): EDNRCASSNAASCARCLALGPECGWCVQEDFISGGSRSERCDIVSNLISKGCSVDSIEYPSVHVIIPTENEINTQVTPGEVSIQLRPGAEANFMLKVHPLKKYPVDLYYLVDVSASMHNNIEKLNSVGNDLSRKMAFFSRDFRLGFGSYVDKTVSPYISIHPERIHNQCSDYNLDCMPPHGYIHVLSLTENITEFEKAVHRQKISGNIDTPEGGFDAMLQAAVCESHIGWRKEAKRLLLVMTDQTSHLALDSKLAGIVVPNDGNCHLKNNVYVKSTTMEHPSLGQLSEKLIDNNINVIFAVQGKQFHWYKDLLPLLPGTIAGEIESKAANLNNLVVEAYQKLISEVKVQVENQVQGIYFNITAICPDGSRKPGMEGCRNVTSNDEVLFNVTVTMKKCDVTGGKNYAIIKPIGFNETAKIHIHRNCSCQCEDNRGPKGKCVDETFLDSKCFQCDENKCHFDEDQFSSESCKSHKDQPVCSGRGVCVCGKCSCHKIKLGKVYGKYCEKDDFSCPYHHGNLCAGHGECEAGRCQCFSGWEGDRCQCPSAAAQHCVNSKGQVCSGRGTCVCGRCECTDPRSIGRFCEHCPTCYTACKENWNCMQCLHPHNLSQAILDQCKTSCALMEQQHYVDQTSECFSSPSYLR
# RUN DESCRIPTION: AlphaScreen proximity-based integrin binding assay with TGF-b1 LAP
# CONDITION DETAILS: values given as ranges
pIC50: −log10 of the molar value.

# input Short answer please: pIC50, human integrin αVβ8 (Homo sapiens, UniProt P06756+P26012), entry Cc1ncnc(O)c1C1(C(=O)N[C@@H](CCOCCCCc2ccc3c(n2)NCCC3)C(=O)O)CC1 [Compound 102]
# output 6.82 to 7.30

# input Short answer please: pIC50, human integrin αVβ8 (Homo sapiens, UniProt P06756+P26012), entry N#Cc1c[nH]nc1C1(C(=O)N[C@@H](CCOCCCCc2ccc3c(n2)NCCC3)C(=O)O)CC1 [Compound 78]
# output > 7.30

# input Short answer please: pIC50, human integrin αVβ8 (Homo sapiens, UniProt P06756+P26012), entry Cc1nccnc1C1(C(=O)N[C@@H](CCOCCCCc2ccc3c(n2)NCCC3)C(=O)O)CC1 [Compound 42]
# output > 7.30

# input Short answer please: pIC50, human integrin αVβ8 (Homo sapiens, UniProt P06756+P26012), entry Cn1cnc(Cl)c1C1(C(=O)N[C@@H](CCOCCCCc2ccc3c(n2)NCCC3)C(=O)O)CC1 [Compound 80]
# output > 7.30

# input Short answer please: pIC50, human integrin αVβ8 (Homo sapiens, UniProt P06756+P26012), entry Cc1cncc(F)c1C1(C(=O)N[C@@H](CCOCCCCc2ccc3c(n2)NCCC3)C(=O)O)CC1 [Compound 47]
# output > 7.30

# input Short answer please: pIC50, human integrin αVβ8 (Homo sapiens, UniProt P06756+P26012), entry O=C(O)[C@H](CCOCCCCc1ccc2c(n1)NCCC2)NC(=O)C1(c2ccccc2)CC1 [Compound 10]
# output 6.82 to 7.30

# input Short answer please: pIC50, human integrin αVβ8 (Homo sapiens, UniProt P06756+P26012), entry O=C(O)[C@H](CCOCCCCc1ccc2c(n1)NCCC2)NC(=O)C1(n2ccnc2C(F)(F)F)CC1 [Compound 70]
# output > 7.30

====

Consider the following compounds and their measured pIC50 readings.
# TARGET OR TEST SYSTEM: human integrin αVβ6 (Homo sapiens, UniProt P06756+P18564)
# RUN DESCRIPTION: AlphaScreen proximity-based integrin binding assay with TGF-b1 LAP
# CONDITION DETAILS: values given as ranges
pIC50: −log10 of the molar value.

Recorded results for 5 compounds are shown here.
O=C(O)[C@H](CCOCCCCc1ccc2c(n1)NCCC2)NC(=O)C1(c2ncccc2C(F)F)CC1	≤ 6.30
O=C(O)[C@H](CCOCCCCc1ccc2c(n1)NCCC2)NC(=O)C1(c2cncnc2C(F)F)CC1	≤ 6.30
O=C(O)[C@H](CCOCCCCc1ccc2c(n1)NCCC2)NC(=O)C1(n2nc(Cl)cc2Cl)CC1	6.30 to 6.60
Cc1nc(C)c(C2(C(=O)N[C@@H](CCOCCCCc3ccc4c(n3)NCCC4)C(=O)O)CC2)c(Cl)n1	≤ 6.30
O=C(O)[C@H](CCOCCCCc1ccc2c(n1)NCCC2)NC(=O)C1(c2cccnc2C(F)F)CC1	≤ 6.30

# input Return reported pIC50; argument: "Cc1cc(Cl)n(C2(C(=O)N[C@@H](CCOCCCCc3ccc4c(n3)NCCC4)C(=O)O)CC2)n1"
# output ≤ 6.30

====

Consider the following compounds and their measured IC50 readings.
# TARGET OR TEST SYSTEM: human integrin αVβ1 (Homo sapiens, UniProt P05556+P06756)
# RUN DESCRIPTION: AlphaScreen proximity-based integrin binding assay with TGF-b1 LAP
# CONDITION DETAILS: values given as ranges

Recorded results for 3 compounds are shown here.
COc1ccc(F)c(F)c1C(C)(C)C(=O)N[C@@H](CCOCCCCc1ccc2c(n1)NCCC2)C(=O)O	50 to 150 nM
N#Cc1ccccc1C1(C(=O)N[C@@H](CCOCCCCc2ccc3c(n2)NCCC3)C(=O)O)CC1	< 50 nM
Cc1ccncc1C1(C(=O)N[C@@H](CCOCCCCc2ccc3c(n2)NCCC3)C(=O)O)CC1	< 50 nM

# input Return reported IC50; argument: "COc1nccc(Cl)c1C1(C(=O)N[C@@H](CCOCCCCc2ccc3c(n2)NCCC3)C(=O)O)CC1"
# output < 50 nM

# input Return reported IC50; argument: "O=C(Cc1ccccc1)N[C@@H](CCOCCCCc1ccc2c(n1)NCCC2)C(=O)O"
# output < 50 nM

# input Return reported IC50; argument: "O=C(O)[C@H](CCOCCCCc1ccc2c(n1)NCCC2)NC(=O)C1(n2c(Cl)cccc2=O)CC1"
# output < 50 nM

# input Return reported IC50; argument: "Cc1cccc(C2(C(=O)N[C@@H](CCOCCCCc3ccc4c(n3)NCCC4)C(=O)O)CC2)n1"
# output 250 to 500 nM

# input Return reported IC50; argument: O=C(O)[C@H](CCOCCCCc1ccc2c(n1)NCCC2)NC(=O)C1(C(F)F)CCOC1 (stereo partly drawn)
# output < 50 nM

# input Return reported IC50; argument: "O=C(O)[C@H](CCOCCCCc1ccc2c(n1)NCCC2)NC(=O)C1(c2c(Cl)cncc2Cl)CC1"
# output < 50 nM

# input Return reported IC50; argument: "Cc1ncnc(Cl)c1C1(C(=O)N[C@@H](CCOCCCCc2ccc3c(n2)NCCC3)C(=O)O)CC1"
# output < 50 nM

# input Return reported IC50; argument: "COc1cncc(Cl)c1C1(C(=O)N[C@@H](CCOCCCCc2ccc3c(n2)NCCC3)C(=O)O)CC1"
# output < 50 nM
